measured quantity: pIC50
// pIC50: -log10(molar conc.)

# value of pIC50, C. posadasii Acs1 (Coccidioides posadasii, UniProt C5PGB4), item CCOP(=O)(O)OC[C@H]1O[C@@H](n2cnc3c(N)ncnc32)[C@H](O)[C@@H]1O [ethyl-AMP] = 7.15

* * *

- target of assay: CnAcs1 (Cryptococcus neoformans, UniProt J9VFT1)
- Sequence (J9VFT1 entry or part of it): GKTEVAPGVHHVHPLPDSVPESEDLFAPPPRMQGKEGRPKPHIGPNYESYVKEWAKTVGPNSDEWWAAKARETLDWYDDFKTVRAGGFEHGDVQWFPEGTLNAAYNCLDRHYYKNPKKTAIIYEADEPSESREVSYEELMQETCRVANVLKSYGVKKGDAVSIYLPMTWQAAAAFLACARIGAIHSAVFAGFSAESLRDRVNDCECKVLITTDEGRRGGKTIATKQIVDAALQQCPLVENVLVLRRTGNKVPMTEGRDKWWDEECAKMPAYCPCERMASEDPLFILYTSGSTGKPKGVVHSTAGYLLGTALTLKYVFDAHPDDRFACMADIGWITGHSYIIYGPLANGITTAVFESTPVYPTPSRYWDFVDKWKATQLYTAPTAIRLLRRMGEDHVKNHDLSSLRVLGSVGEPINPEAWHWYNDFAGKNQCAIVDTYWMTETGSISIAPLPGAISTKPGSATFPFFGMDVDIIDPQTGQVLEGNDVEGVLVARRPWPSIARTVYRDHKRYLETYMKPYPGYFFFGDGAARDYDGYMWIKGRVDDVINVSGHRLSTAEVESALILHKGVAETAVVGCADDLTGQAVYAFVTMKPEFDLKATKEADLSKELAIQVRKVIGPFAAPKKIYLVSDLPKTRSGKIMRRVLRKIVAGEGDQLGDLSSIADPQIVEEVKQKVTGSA
measured quantity: pIC50
// pIC50: -log10(molar conc.)

The reported value for CCOP(=O)(O)OC[C@H]1O[C@@H](n2cnc3c(N)ncnc32)[C@H](O)[C@@H]1O in terms of pIC50 is 5.68

* * *

- target of assay: CnAcs1 (Cryptococcus neoformans, UniProt J9VFT1)
- procedure details: biochemical
- Format: binding
- condition info: read-out: thermal shift (ΔTm)
Mark criterion met only when ΔTm at 1000 µM stays strictly below 7 °C. Values equal to the cut-off are criterion not met.

Is ΔTm at 1000 µM of CCOP(=O)(O)OC[C@H]1O[C@@H](n2cnc3c(N)ncnc32)[C@H](O)[C@@H]1O [ethyl-AMP] strictly below 7 °C?
criterion not met

Is ΔTm at 1000 µM of CCCOP(=O)(O)OC[C@H]1O[C@@H](n2cnc3c(N)ncnc32)[C@H](O)[C@@H]1O [propyl-AMP, propyl-adenosine monophosphate ester] strictly below 7 °C?
criterion not met

Is ΔTm at 1000 µM of COP(=O)(O)OC[C@H]1O[C@@H](n2cnc3c(N)ncnc32)[C@H](O)[C@@H]1O [methyl-AMP] strictly below 7 °C?
criterion not met

Is ΔTm at 1000 µM of Nc1ncnc2c1ncn2[C@@H]1O[C@H](COS(N)(=O)=O)[C@@H](O)[C@H]1O [AMS, adenosine monosulfonamide] strictly below 7 °C?
criterion met

Is ΔTm at 1000 µM of CCCCOP(=O)(O)OC[C@H]1O[C@@H](n2cnc3c(N)ncnc32)[C@H](O)[C@@H]1O [butyl-AMP] strictly below 7 °C?
criterion met

* * *

- target of assay: A. fumigatus Acs1 (Aspergillus fumigatus)
- Sequence (Q4WQ02 2-670): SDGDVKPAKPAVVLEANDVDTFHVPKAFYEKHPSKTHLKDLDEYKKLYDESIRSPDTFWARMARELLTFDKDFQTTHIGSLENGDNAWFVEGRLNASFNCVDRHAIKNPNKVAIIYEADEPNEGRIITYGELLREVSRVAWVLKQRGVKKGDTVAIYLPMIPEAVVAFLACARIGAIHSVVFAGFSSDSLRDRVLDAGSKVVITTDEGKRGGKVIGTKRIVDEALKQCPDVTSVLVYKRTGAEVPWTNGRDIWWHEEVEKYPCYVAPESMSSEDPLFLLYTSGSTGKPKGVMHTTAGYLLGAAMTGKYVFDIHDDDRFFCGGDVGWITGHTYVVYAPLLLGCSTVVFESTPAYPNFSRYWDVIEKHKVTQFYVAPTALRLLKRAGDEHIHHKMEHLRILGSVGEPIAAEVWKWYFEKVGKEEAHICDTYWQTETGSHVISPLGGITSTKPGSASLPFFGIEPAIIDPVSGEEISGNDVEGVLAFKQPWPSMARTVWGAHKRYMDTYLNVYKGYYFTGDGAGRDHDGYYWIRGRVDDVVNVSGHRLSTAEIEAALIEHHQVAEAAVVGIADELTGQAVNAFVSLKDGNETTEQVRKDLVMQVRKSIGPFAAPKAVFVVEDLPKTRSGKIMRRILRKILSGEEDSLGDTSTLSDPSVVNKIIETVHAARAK
measured quantity: pIC50
// pIC50: -log10(molar conc.)

The reported value for CCOP(=O)(O)OC[C@H]1O[C@@H](n2cnc3c(N)ncnc32)[C@H](O)[C@@H]1O in terms of pIC50 is 7.22

* * *

- target of assay: CnAcs1 (Cryptococcus neoformans, UniProt J9VFT1)
- procedure details: Coupled continuous pyrophosphate detection assay (EnzChek) of ACS activity
measured quantity: pKi
// pKi: -log10(molar conc.)

The reported value for COP(=O)(O)OC[C@H]1O[C@@H](n2cnc3c(N)ncnc32)[C@H](O)[C@@H]1O in terms of pKi is 4.41

The reported value for CCOP(=O)(O)OC[C@H]1O[C@@H](n2cnc3c(N)ncnc32)[C@H](O)[C@@H]1O in terms of pKi is 6.33

The reported value for CCCOP(=O)(O)OC[C@H]1O[C@@H](n2cnc3c(N)ncnc32)[C@H](O)[C@@H]1O [propyl-AMP, propyl-adenosine monophosphate ester] in terms of pKi is 5.91

The reported value for CC(=O)NS(=O)(=O)OC[C@H]1O[C@@H](n2cnc3c(N)ncnc32)[C@H](O)[C@@H]1O [acyl-AMS, acetyl-adenosine monosulfonamide] in terms of pKi is 6.23
